Assay: Retention time of the compound by isocratic elution based HPLC method
Assay type: physicochemical
We use 0.9 min as the dividing line for Retention_time: on or above the line is label 1, below is label 0.

CCCCCCCCCC[n+]1cccc2cc(O)ccc21.[Br-] ... label 0
CCCCCCCCCCCCCCCCCC[n+]1cccc2cc(O)ccc21.[Br-] ... label 1
CCCCCCCCCCCCCCCC[n+]1cccc2cc(O)ccc21.[Br-] ... label 1
CCCCCCCCCCCCCC[n+]1cccc2cc(O)ccc21.[Br-] ... label 1

Please look at the following compound next.
Lookup: Please indicate if the recorded Retention_time for "CCCCCCCCCCCC[n+]1cccc2cc(O)ccc21.[Br-]" meets or exceeds 0.9 min.
Found: label 1
